Kindly supply the reported CC50 at 48 h values for the records listed here.
- PROTOCOL_DETAILS: Cytotoxicity (resazurin)
- Format: cell-based, Balb/c mice
- ASSAY_CONDITIONS: Balb/c, mouse, bone marrow derived macrophages (BMDM); 48 h incubation; read-out: Cytotoxicity CC50 (µM) ± SD BMDM
Value expressed in µM; do not type the unit.

Asked: // returns reported CC50 at 48 h for input Clc1ccc2nc(COCCn3cc(-c4ccc(-c5ccccc5)cc4)nn3)ccc2c1
Given back: 77.5

Asked: Would you mind telling me what CC50 at 48 h value was observed for CC(C)(C)c1ccc(CN2CCN(c3ccnc4cc(Cl)ccc34)CC2)cc1 [compound 100, reference compound] ?
Given back: 51.4

Asked: Name the reported CC50 at 48 h value associated with the compound Nc1nc2c(ncn2C2OC(Cn3cc(-c4ccc(-c5ccccc5)cc4)nn3)C(O)C2O)c(=O)[nH]1 (centres unmarked)
Given back: 23.8

Asked: What does the record list as CC50 at 48 h for O=C(NCc1ccccc1)c1ccc2nc(-c3ccccc3)c(-c3ccccc3)nc2c1 ?
Given back: 13.1
